# Test system: Nocardia abscessus
# assay-notes: Antimicrobial activity against Nocardia abscessus after 72 hrs by microdilution method
# Format: functional
Readings of MIC for the listed compounds

State its MIC: `NCC[C@H](O)C(=O)N[C@@H]1C[C@H](N)[C@@H](O[C@H]2O[C@H](CN)[C@@H](O)[C@H](O)[C@H]2O)[C@H](O)[C@H]1O[C@H]1O[C@H](CO)[C@@H](O)[C@H](N)[C@H]1O`
≤ 0.06 µg/mL

Specify MIC for `CC(=O)NC[C@H]1CN(c2ccc(N3CCOCC3)c(F)c2)C(=O)O1` and stop.
≤ 0.06 µg/mL

Write down MIC measured for item `CN(C)c1cc(NC(=O)CNC(C)(C)C)c(O)c2c1C[C@H]1C[C@H]3[C@H](N(C)C)C(O)=C(C(N)=O)C(=O)[C@@]3(O)C(O)=C1C2=O`
≤ 0.06 µg/mL

# context switch: different compound, same MIC
Check the records and state MIC for `CN(C)c1ccc(O)c2c1C[C@H]1C[C@H]3[C@H](N(C)C)C(O)=C(C(N)=O)C(=O)[C@@]3(O)C(O)=C1C2=O`
≤ 0.06 µg/mL
